Data credit: patent US10183917B2

Protocol text: Pharmacokinetics test in SD rats (iv and po)
Format: in vivo
Conditions: male, SD, rat, in vivo, iv, 1 mg/kg
# Lookup of reported half-life keyed by entry
Quantity: half-life

INSERT INTO results (chemical_string, test_result) VALUES
  ('O=C(O)c1ccc2c(c1)Oc1ccc(OCc3c(-c4c(Cl)cccc4Cl)noc3C3CC3)cc1S(=O)(=O)C2', '93.6 min'),
  ('O=C(O)c1ccc2c(c1)Oc1cnc(OCc3c(-c4c(Cl)cccc4Cl)noc3C3CC3)cc1CC2', '30 min'),
  ('CC(C)c1cnn(-c2c(Cl)cccc2Cl)c1COc1ccc2c(n1)CCc1ccc(C(=O)O)cc1O2', '25.8 min');

----------
Protocol text: Pharmacokinetics test in SD rats (iv and po)
Format: in vivo
Conditions: male, SD, rat, in vivo, po, 5 mg/kg
Quantity: Cmax (ng/mL)

INSERT INTO measurements (compound, quantity, test_result) VALUES
  ('CC(C)c1cnn(-c2c(Cl)cccc2Cl)c1COc1ccc2c(n1)CCc1ccc(C(=O)O)cc1O2 [Example 17]', 'Cmax', 5960),
  ('O=C(O)c1ccc2c(c1)Oc1cnc(OCc3c(-c4c(Cl)cccc4Cl)noc3C3CC3)cc1CC2 [Example 4]', 'Cmax', 1800),
  ('O=C(O)c1ccc2c(c1)Oc1ccc(OCc3c(-c4c(Cl)cccc4Cl)noc3C3CC3)cc1S(=O)(=O)C2 [Example 5]', 'Cmax', 1300);

----------
Protocol text: Pharmacokinetics test in SD rats (iv and po)
Format: in vivo
Conditions: male, SD, rat, in vivo, iv, 1 mg/kg
Quantity: Vd

INSERT INTO measurements (chemical_string, quantity, test_result) VALUES
  ('O=C(O)c1ccc2c(c1)Oc1ccc(OCc3c(-c4c(Cl)cccc4Cl)noc3C3CC3)cc1S(=O)(=O)C2', 'Vd', '0.82 L/kg'),
  ('CC(C)c1cnn(-c2c(Cl)cccc2Cl)c1COc1ccc2c(n1)CCc1ccc(C(=O)O)cc1O2', 'Vd', '0.89 L/kg'),
  ('O=C(O)c1ccc2c(c1)Oc1cnc(OCc3c(-c4c(Cl)cccc4Cl)noc3C3CC3)cc1CC2', 'Vd', '0.45 L/kg');

----------
Protocol text: Pharmacokinetics test in SD rats (iv and po)
Type: in vivo
Conditions: male, SD, rat, in vivo, iv, 1 mg/kg
Quantity: MRT inf

INSERT INTO measurements (compound, test_result) VALUES
  ('O=C(O)c1ccc2c(c1)Oc1ccc(OCc3c(-c4c(Cl)cccc4Cl)noc3C3CC3)cc1S(=O)(=O)C2 [Example 5]', '45.6 min'),
  ('O=C(O)c1ccc2c(c1)Oc1cnc(OCc3c(-c4c(Cl)cccc4Cl)noc3C3CC3)cc1CC2 [Example 4]', '24 min'),
  ('CC(C)c1cnn(-c2c(Cl)cccc2Cl)c1COc1ccc2c(n1)CCc1ccc(C(=O)O)cc1O2 [Example 17]', '19.2 min');

----------
Protocol text: Pharmacokinetics test in SD rats (iv and po)
Assay type: in vivo
Conditions: male, SD, rat, in vivo, iv, 1 mg/kg
Quantity: Cmax (ng/mL)

INSERT INTO measurements (chemical_string, unit_tag, test_result) VALUES
  ('O=C(O)c1ccc2c(c1)Oc1ccc(OCc3c(-c4c(Cl)cccc4Cl)noc3C3CC3)cc1S(=O)(=O)C2', 'ng/mL', 2420),
  ('CC(C)c1cnn(-c2c(Cl)cccc2Cl)c1COc1ccc2c(n1)CCc1ccc(C(=O)O)cc1O2', 'ng/mL', 4280),
  ('O=C(O)c1ccc2c(c1)Oc1cnc(OCc3c(-c4c(Cl)cccc4Cl)noc3C3CC3)cc1CC2', 'ng/mL', 1900);

----------
# Lookup of reported EC50 keyed by entry
Measurement target: nuclear receptor FXR recombinant protein (Homo sapiens (Human), UniProt Q96RI1)
Sequence (Q96RI1 258-486, other chains not shown): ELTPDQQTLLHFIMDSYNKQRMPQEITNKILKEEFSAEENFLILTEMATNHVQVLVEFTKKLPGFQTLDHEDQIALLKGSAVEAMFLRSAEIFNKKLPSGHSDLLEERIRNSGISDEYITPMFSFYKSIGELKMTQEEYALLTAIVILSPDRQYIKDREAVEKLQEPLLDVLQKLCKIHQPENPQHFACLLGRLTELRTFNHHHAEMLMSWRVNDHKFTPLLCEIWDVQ
Protocol text: TR-FRET Farnesoid X Receptor Coactivator Assay
Conditions: Fluorescein-SRC2-2, Tb anti-GST antibody, 1 h room temperature
Quantity: EC50 (nM)

INSERT INTO measurements (compound, test_result) VALUES
  ('O=C(O)c1ccc2c(c1)C1(CC1)c1ccc(OCc3c(-c4c(Cl)cccc4Cl)noc3C3CC3)cc1CC2 [Example 9]', 38),
  ('CS(=O)(=O)NC(=O)c1ccc2c(c1)Oc1ccc(OCc3c(-c4c(Cl)cccc4Cl)noc3C3CC3)nc1CC2 [Example 19]', 6),
  ('O=C(O)c1ccc2c(c1)Oc1ccc(OCc3c(-c4c(Cl)cccc4Cl)noc3C3CC3)cc1CC2 [Example 1]', 18),
  ('O=C(O)c1ccc2c(c1)Oc1ccc(OCc3c(-c4c(Cl)cccc4Cl)noc3C3CC3)cc1SC2 [Example 6]', 55),
  ('CC(C)c1nnn(-c2c(Cl)cccc2Cl)c1COc1ccc2c(c1)CCc1ccc(C(=O)O)cc1C2=O [Example 27]', 12),
  ('O=C(O)c1ccc2c(c1)Oc1ccc(OCc3c(-c4c(Cl)cccc4Cl)noc3C3CC3)nc1CC2 [Example 3]', 37),
  ('O=C(O)c1ccc2c(c1)CCc1ccc(OCc3c(-c4c(Cl)cccc4Cl)noc3C3CC3)cc1O2 [Example 15]', 35);

----------
Protocol text: Pharmacokinetics test in SD rats (iv and po)
Assay type: in vivo
Conditions: male, SD, rat, in vivo, iv, 1 mg/kg
# Lookup of reported AUC(0-inf) keyed by entry
Quantity: AUC(0-inf) (ng·h/mL)

INSERT INTO results (chemical_string, test_result) VALUES
  ('CC(C)c1cnn(-c2c(Cl)cccc2Cl)c1COc1ccc2c(n1)CCc1ccc(C(=O)O)cc1O2', 1840),
  ('O=C(O)c1ccc2c(c1)Oc1ccc(OCc3c(-c4c(Cl)cccc4Cl)noc3C3CC3)cc1S(=O)(=O)C2', 941),
  ('O=C(O)c1ccc2c(c1)Oc1cnc(OCc3c(-c4c(Cl)cccc4Cl)noc3C3CC3)cc1CC2', 878);

----------
# Lookup of reported EC50 keyed by entry
Measurement target: nuclear receptor FXR recombinant protein (Homo sapiens (Human))
Protocol text: TR-FRET Farnesoid X Receptor Coactivator Assay
Conditions: Fluorescein-SRC2-2, Tb anti-GST antibody, 1 h room temperature
Protocol: Example 36: TR-FRET Farnesoid X Receptor Coactivator Assay Purchasing invitrogen PV4833 kits. First, the required amount of the compound was weighed and dissolved in 100% DMSO at the maximum concentration of 3000 μM. […] Finally, the solution of the 384 well above was mixed uniformly by centrifuging, and then incubated at room temperature for 1 h. […] EC50 values were calculated according to the measured value of ER=520 nm/495 nm.
Quantity: EC50

INSERT INTO results (compound, measurement_target, quantity, test_result) VALUES
  ('O=C(O)c1ccc2c(c1)S(=O)(=O)c1ccc(OCc3c(-c4c(Cl)cccc4Cl)noc3C3CC3)cc1CC2', 'nuclear receptor FXR recombinant protein (Homo sapiens (Human))', 'EC50', '56 nM'),
  ('O=C(O)c1ccc2c(c1)Oc1ccc(OCc3c(-c4c(Cl)cccc4Cl)noc3C3CC3)nc1CCC2', 'nuclear receptor FXR recombinant protein (Homo sapiens (Human))', 'EC50', '56 nM'),
  ('O=C(O)c1ccc2c(c1)Oc1cnc(OCc3c(-c4c(Cl)cccc4Cl)noc3C3CC3)cc1CC2', 'nuclear receptor FXR recombinant protein (Homo sapiens (Human))', 'EC50', '46 nM'),
  ('O=C(O)c1ccc2c(c1)Oc1ccc(OCc3c(-c4c(Cl)cccc4Cl)noc3C3CC3)cc1S(=O)(=O)C2', 'nuclear receptor FXR recombinant protein (Homo sapiens (Human))', 'EC50', '6 nM'),
  ('O=C(O)c1ccc2c(c1)Oc1ccc(OCc3c(-c4c(Cl)cccc4Cl)noc3C3CC3)cc1[S+]([O-])C2 (centres unmarked)', 'nuclear receptor FXR recombinant protein (Homo sapiens (Human))', 'EC50', '15 nM'),
  ('O=C(O)c1cnc2c(c1)Oc1cnc(OCc3c(-c4c(Cl)cccc4Cl)noc3C3CC3)cc1CC2', 'nuclear receptor FXR recombinant protein (Homo sapiens (Human))', 'EC50', '18 nM'),
  ('O=C(O)c1ccc2c(c1)Oc1ccc(OCc3c(-c4c(Cl)cccc4Cl)noc3C3CC3)nc1C=C2', 'nuclear receptor FXR recombinant protein (Homo sapiens (Human))', 'EC50', '27 nM'),
  ('O=C(NCCS(=O)(=O)O)c1ccc2c(c1)Oc1ccc(OCc3c(-c4c(Cl)cccc4Cl)noc3C3CC3)nc1CC2', 'nuclear receptor FXR recombinant protein (Homo sapiens (Human))', 'EC50', '11 nM'),
  ('CS(=O)(=O)c1ccc2c(c1)Oc1ccc(OCc3c(-c4c(Cl)cccc4Cl)noc3C3CC3)nc1CC2', 'nuclear receptor FXR recombinant protein (Homo sapiens (Human))', 'EC50', '54 nM'),
  ('CC(C)c1cnn(-c2c(Cl)cccc2Cl)c1COc1ccc2c(n1)CCc1ccc(C(=O)O)cc1O2', 'nuclear receptor FXR recombinant protein (Homo sapiens (Human))', 'EC50', '23 nM'),
  ('O=C(O)c1ccc2c(c1)C(=O)c1ccc(OCc3c(-c4c(Cl)cccc4Cl)noc3C3CC3)cc1CC2', 'nuclear receptor FXR recombinant protein (Homo sapiens (Human))', 'EC50', '4 nM');
